Tested on: protein pool extracted from murine liver
Experimental details: In vitro enzyme hydrolysis assay, thin-layer chromatography detection
Type: in vitro ADME, mouse
Applied conditions: 1 mg murine liver protein extract, 50 μg compound, 24 hours, 25° C.
Attribute measured: amount of (R)-alpha-lipoic acid released after 24 h (FIG. 3)

Recorded results for 6 compounds are shown here.
{"Smiles entry": "O=C(CCCC[C@@H]1CCSS1)NCCc1ccccc1", "Endpoint value": "reduced release"}
{"Smiles entry": "O=C(CCCC[C@@H]1CCSS1)NCc1ccccc1", "Endpoint value": "very considerable amount"}
{"Smiles entry": "CCCCNC(=O)CCCC[C@@H]1CCSS1", "Endpoint value": "very considerable amount"}
{"Smiles entry": "CNC(=O)CCCC[C@@H]1CCSS1", "Endpoint value": "reduced release"}
{"Smiles entry": "O=C(CCCC[C@@H]1CCSS1)NCC1CC1", "Endpoint value": "very considerable amount"}
{"Smiles entry": "CCCNC(=O)CCCC[C@@H]1CCSS1", "Endpoint value": "reduced release"}

Consider `O=C(CCCC[C@@H]1CCSS1)NCCCc1ccccc1` . Its measured amount of (R)-alpha-lipoic acid released after 24 h (FIG. 3) is reduced release

Consider `CC(C)NC(=O)CCCC[C@@H]1CCSS1` . Its measured amount of (R)-alpha-lipoic acid released after 24 h (FIG. 3) is reduced release

Consider `C=CCCNC(=O)CCCC[C@@H]1CCSS1` . Its measured amount of (R)-alpha-lipoic acid released after 24 h (FIG. 3) is very considerable amount

Consider `CCCCCNC(=O)CCCC[C@@H]1CCSS1` . Its measured amount of (R)-alpha-lipoic acid released after 24 h (FIG. 3) is reduced release

Consider `COc1ccc(CNC(=O)CCCC[C@@H]2CCSS2)cc1O` . Its measured amount of (R)-alpha-lipoic acid released after 24 h (FIG. 3) is very considerable amount

Consider `O=C(CCCC[C@@H]1CCSS1)NCCCCc1ccccc1` . Its measured amount of (R)-alpha-lipoic acid released after 24 h (FIG. 3) is reduced release

Consider `COc1ccc(CNC(=O)CCCC[C@@H]2CCSS2)cc1OC(C)=O` . Its measured amount of (R)-alpha-lipoic acid released after 24 h (FIG. 3) is very considerable amount

Consider `O=C(CCCC[C@@H]1CCSS1)NC1CCCC1` . Its measured amount of (R)-alpha-lipoic acid released after 24 h (FIG. 3) is reduced release
